# measuredTarget: BCRP (Homo sapiens, UniProt Q9UNQ0)
# Construct: expressed in transfected cells; host or cells: MDCKII-BCRP (gift of A. H. Schinkel and P. Borst)
# Sequence (Q9UNQ0 whole entry): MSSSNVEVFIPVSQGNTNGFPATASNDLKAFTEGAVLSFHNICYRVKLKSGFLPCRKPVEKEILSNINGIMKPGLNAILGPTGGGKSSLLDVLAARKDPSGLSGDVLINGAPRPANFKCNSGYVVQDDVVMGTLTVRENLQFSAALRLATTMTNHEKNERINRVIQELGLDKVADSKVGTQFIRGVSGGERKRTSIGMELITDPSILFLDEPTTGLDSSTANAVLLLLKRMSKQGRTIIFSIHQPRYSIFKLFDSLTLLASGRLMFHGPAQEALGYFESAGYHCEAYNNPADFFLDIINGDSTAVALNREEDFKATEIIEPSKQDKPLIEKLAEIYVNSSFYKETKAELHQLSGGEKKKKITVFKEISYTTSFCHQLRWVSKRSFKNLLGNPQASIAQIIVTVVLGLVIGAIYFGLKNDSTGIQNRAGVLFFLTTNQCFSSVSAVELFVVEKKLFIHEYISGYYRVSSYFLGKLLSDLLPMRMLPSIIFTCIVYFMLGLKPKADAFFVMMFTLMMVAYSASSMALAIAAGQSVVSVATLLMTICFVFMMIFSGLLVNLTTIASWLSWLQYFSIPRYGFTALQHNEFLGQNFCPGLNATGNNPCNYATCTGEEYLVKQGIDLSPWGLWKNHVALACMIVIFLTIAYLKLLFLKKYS
# testProtocol: BCRP inhibition, flow cytometric pheophorbide A assay in MDCKII-BCRP cells
# Format: in vitro ADME
# Description: MDCKII cells. The transporter over-expressing cell lines MDCKII-MDR1 [5], MDCKII-MRP2 [6], and MDCKII-BCRP [7] and the corresponding parental cell line MDCKII were used to assess the sensitivity of cells with and without P-gp, multidrug resistance-associated protein 2 (MRP2/ABCC2), or BCRP expression. Moreover, MDCKII-BCRP cells were used to assess BCRP inhibition by venetoclax. MDCKII over-expressing cell lines were kindly provided by A. H. Schinkel and P. Borst (Amsterdam, The Netherlands). […]
testReadout: IC50 (µM)
Return type: number; implicit unit µM.

Requested read-out: IC50. Entry: CC1(C)CCC(CN2CCN(c3ccc(C(=O)NS(=O)(=O)c4ccc(NCC5CCOCC5)c([N+](=O)[O-])c4)c(Oc4cnc5[nH]ccc5c4)c3)CC2)=C(c2ccc(Cl)cc2)C1 [Venetoclax]
19.6
